Measured ka of individual entries
- Tested on: Macaca fascicularis PRLR (mfPRLR.mmh; SEQ ID NO:403)
- Sequence (as listed by the source): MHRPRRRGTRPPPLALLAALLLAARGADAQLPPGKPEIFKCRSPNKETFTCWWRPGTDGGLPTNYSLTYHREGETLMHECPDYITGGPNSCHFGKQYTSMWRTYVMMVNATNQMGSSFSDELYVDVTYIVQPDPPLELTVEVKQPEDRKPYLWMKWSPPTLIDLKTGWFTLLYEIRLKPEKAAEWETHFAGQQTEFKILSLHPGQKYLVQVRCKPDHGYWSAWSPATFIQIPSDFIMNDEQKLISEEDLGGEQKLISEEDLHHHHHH
- test_summary: Surface plasmon resonance (Biacore T200), antibody-capture format
- Assay type: binding
- details: 25° C., analyte mfPRLR.mmh
assay_metric: ka

INSERT INTO measurements (molecule, result) VALUES
  ('H1H6958N2: anti-PRLR antibody, receptor blocking, human IgG1 Fc form of H2M6958N2 of Table 1; HCVR/LCVR SEQ ID NOs 290/298 (antibody, V domains shown) VH: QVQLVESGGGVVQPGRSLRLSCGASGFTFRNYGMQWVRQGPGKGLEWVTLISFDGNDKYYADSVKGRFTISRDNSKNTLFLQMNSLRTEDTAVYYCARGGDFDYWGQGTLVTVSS VL: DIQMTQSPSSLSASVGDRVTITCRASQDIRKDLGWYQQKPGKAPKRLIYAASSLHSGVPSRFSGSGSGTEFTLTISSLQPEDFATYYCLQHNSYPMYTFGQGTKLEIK', '195000 M/s'),
  ('H1H6966N: anti-PRLR antibody, human IgG1 Fc form of H2M6966N of Table 1; HCVR/LCVR SEQ ID NOs 338/346 (antibody, V domains shown, human IgG1 Fc) VH: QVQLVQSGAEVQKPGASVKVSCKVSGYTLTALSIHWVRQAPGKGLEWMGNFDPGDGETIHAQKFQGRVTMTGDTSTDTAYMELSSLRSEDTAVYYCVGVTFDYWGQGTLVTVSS VL: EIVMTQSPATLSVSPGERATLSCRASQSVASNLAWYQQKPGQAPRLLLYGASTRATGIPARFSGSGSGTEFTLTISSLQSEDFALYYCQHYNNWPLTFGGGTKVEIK', '782000 M/s'),
  ('H1H6797P: fully human anti-PRLR antibody, human IgG1 Fc; HCVR/LCVR SEQ ID NOs 178/186 (antibody, V domains shown) VH: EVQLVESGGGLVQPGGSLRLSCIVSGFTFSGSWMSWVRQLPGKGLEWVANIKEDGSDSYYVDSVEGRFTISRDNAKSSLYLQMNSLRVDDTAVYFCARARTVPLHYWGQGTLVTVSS VL: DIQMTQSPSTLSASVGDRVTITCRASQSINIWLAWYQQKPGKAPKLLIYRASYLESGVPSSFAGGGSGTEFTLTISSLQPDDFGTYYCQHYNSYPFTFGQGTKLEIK', '670000 M/s'),
  ('H1H6803P: fully human anti-PRLR antibody, human IgG1 Fc; HCVR/LCVR SEQ ID NOs 226/234 (antibody, V domains shown) VH: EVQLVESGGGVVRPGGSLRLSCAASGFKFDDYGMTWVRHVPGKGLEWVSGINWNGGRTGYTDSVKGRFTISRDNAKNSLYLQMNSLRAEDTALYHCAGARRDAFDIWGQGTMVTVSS VL: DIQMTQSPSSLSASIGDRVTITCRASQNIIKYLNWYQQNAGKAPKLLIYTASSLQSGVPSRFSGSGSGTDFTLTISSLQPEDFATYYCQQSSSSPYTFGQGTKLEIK', '62100 M/s');
